IC50 reference
# tested_system: BRD4 BD2 (Homo sapiens, UniProt O60885)
# assay_summary: AlphaScreen binding assay, BRD4 Bromodomain 2

Solved cases (8 shown):
1. CC(=O)N1c2ccc(-c3cnn(CC4CCOCC4)c3)cc2N(C(=O)OC(C)C)C[C@@H]1C    50 to 500 nM
2. CC(=O)N1c2ccc(-c3ccc(S(C)(=O)=O)cc3)cc2N(C(=O)c2ccc(S(=O)(=O)N(C)C)o2)C[C@@H]1C    > 500 nM
3. CC(=O)N1c2ccc(-c3ccc(C(=O)N4CCN(S(C)(=O)=O)CC4)cc3)cc2N(C(=O)OC(C)C)C[C@@H]1C    50 to 500 nM
4. CC(=O)N1c2ccccc2N(C(=O)c2cnn3c2OCCC3)C[C@@H]1C    > 500 nM
5. CC(=O)N1c2ccc(-c3cnn(C4CC4)c3)cc2N(C(=O)OC2CC(F)(F)C2)C[C@@H]1C    50 to 500 nM
6. CC(=O)N1c2ccc(-c3cnn(C4COC4)c3)cc2N(C(=O)OC2CC3CC3C2)C[C@@H]1C (stereo partly drawn)    < 50 nM
7. CCOC(=O)N1C[C@H](C)N(C(C)=O)c2ccc(-c3ccc(N4CCOCC4)cc3)cc21    50 to 500 nM
8. CC(=O)N1c2ccccc2N(C(=O)c2ccc(-c3ccccc3)cc2)C[C@@H]1C    > 500 nM

### Prompt Looking for the measured IC50 of CC(=O)N1c2ncc(-c3ccc(C(=O)N(C)C)cc3)cc2N(C(=O)c2ccco2)C[C@@H]1C , can you help?
### Response 50 to 500 nM

### Prompt Looking for the measured IC50 of CC(=O)N1c2ccc(-c3ccccc3F)cc2N(C(=O)c2ccco2)C[C@@H]1C , can you help?
### Response 50 to 500 nM

### Prompt Looking for the measured IC50 of COc1ccccc1C(=O)N1C[C@H](C)N(C(C)=O)c2ccccc21 , can you help?
### Response > 500 nM

### Prompt Looking for the measured IC50 of CC(=O)N1c2ccc(-c3cnn(CCC#N)c3)cc2N(C(=O)Oc2ccc(F)cc2)C[C@@H]1C , can you help?
### Response < 50 nM

### Prompt Looking for the measured IC50 of CC(=O)N1c2ccc(-c3cnn(CCN4CCCC4=O)c3)cc2N(C(=O)C2CC2)C[C@@H]1C , can you help?
### Response 50 to 500 nM

### Prompt Looking for the measured IC50 of CC(=O)N1c2ccccc2N(CC2CCCCC2)C[C@@H]1C , can you help?
### Response > 500 nM

### Prompt Looking for the measured IC50 of CC(=O)N1c2ccc(-c3ccc(N4CCCS4(=O)=O)c(F)c3)cc2N(C(=O)C2CCC2)C[C@@H]1C , can you help?
### Response 50 to 500 nM

----------
# tested_system: BRD4 BD1 (Homo sapiens, UniProt O60885)
# assay_summary: AlphaScreen binding assay, BRD4 Bromodomain 1
pIC50: −log10 of the molar value.
measured_metric: pIC50

Solved cases (2 shown):
1) CCOC(=O)N1C[C@H](C)N(C(C)=O)c2ccc(-c3ccc(S(N)(=O)=O)cc3)cc21    5.00 to 6.00
2) CC(=O)N1c2ccc(-c3ccc(S(C)(=O)=O)cc3)cc2N(c2n[nH]c3ccccc23)C[C@@H]1C    6.00 to 7.00

### Prompt Looking for the measured pIC50 of CC(C)OC(=O)N1C[C@H](C)N(C(=O)C2CC2)c2ccc(-c3ccc(C(=O)N4CC[C@H](O)C4)cc3)cc21 , can you help?
### Response 6.00 to 7.00

### Prompt Looking for the measured pIC50 of CC(=O)N1c2ccc(-c3cnn(C4CC4)c3)cc2N(c2nn(C)c3c(F)cccc23)C[C@@H]1C , can you help?
### Response 6.00 to 7.00

----------
# tested_system: BRD4 BD2 (Homo sapiens)
# Construct: made in house
# assay_summary: AlphaScreen binding assay, BRD4 Bromodomain 2
measured_metric: IC50

Solved cases (5 shown):
1) CC(=O)N1c2ccccc2N(C(=O)c2cc3ccncc3s2)C[C@@H]1C    > 0.5 µM
2) CC(=O)N1c2ccc(-c3cnn(C4CC4)c3)nc2N(C(=O)Nc2ccc(F)cc2)C[C@@H]1C    > 0.5 µM
3) CC(=O)N1c2ccc(-c3cccc(NS(=O)(=O)N(C)C)c3)cc2N(C(=O)C2CCC2)C[C@@H]1C    0.05 to 0.5 µM
4) CC(=O)N1c2ccccc2N(Cc2cccc3c2OCO3)C[C@@H]1C    0.05 to 0.5 µM
5) CC(C)OC(=O)N1C[C@H](C)N(C(=O)C2CC2)c2ccc(-c3cn(C)nn3)cc21    > 0.5 µM

### Prompt Looking for the measured IC50 of CC(=O)N1c2ccccc2N(S(=O)(=O)c2cccc(C#N)c2)C[C@@H]1C , can you help?
### Response > 0.5 µM

### Prompt Looking for the measured IC50 of CC(=O)N1c2ccc(-c3ccc4nnc(C)n4c3)cc2N(C(=O)c2ccco2)C[C@@H]1C , can you help?
### Response 0.05 to 0.5 µM

### Prompt Looking for the measured IC50 of CCNC(=O)N1C[C@H](C)N(C(C)=O)c2ccc(-c3ccc(S(C)(=O)=O)cc3)cc21 , can you help?
### Response > 0.5 µM

### Prompt Looking for the measured IC50 of CC(=O)N1c2ccccc2N(C(=O)c2ccc3nccn3c2)C[C@@H]1C , can you help?
### Response > 0.5 µM

### Prompt Looking for the measured IC50 of CC(=O)N1c2ccc(-c3ccc(C(=O)N4C[C@H]5CCN(C)[C@H]5C4)cc3)cc2N(C(=O)OC(C)C)C[C@@H]1C , can you help?
### Response 0.05 to 0.5 µM

### Prompt Looking for the measured IC50 of CC(=O)N1c2ccc(-c3ccc4c(c3)CCN4S(C)(=O)=O)cc2N(C(=O)Oc2cccnc2)C[C@@H]1C , can you help?
### Response 0.05 to 0.5 µM

----------
# tested_system: BRD4 BD1 (Homo sapiens)
# assay_summary: AlphaScreen binding assay, BRD4 Bromodomain 1
IC50 reference

Solved cases (3 shown):
1. CC(=O)N1c2ccccc2N(C(=O)c2ccc3nccn3c2)C[C@@H]1C    > 10 µM
2. CC(=O)N1c2ccc(-c3cnn(Cc4nonc4C)c3)cc2N(C(=O)C2CC2)C[C@@H]1C    0.1 to 1 µM
3. CC(=O)N1c2ccc(-c3cccc(-c4ccccc4)c3)cc2N(C(=O)c2ccco2)C[C@@H]1C    1 to 10 µM

### Prompt Looking for the measured IC50 of CC(=O)N1c2ccc(-c3cc(F)cc(F)c3)cc2N(C(=O)c2ccco2)C[C@@H]1C , can you help?
### Response 1 to 10 µM

### Prompt Looking for the measured IC50 of CC(=O)N1c2ccc(-c3cc(C(F)(F)F)nn3C)cc2N(C(=O)c2ccco2)C[C@@H]1C , can you help?
### Response > 10 µM

### Prompt Looking for the measured IC50 of CC(=O)N1c2ccc(-c3cnn(C4CC4)c3)cc2N(C(=O)Oc2ccc(C#N)cc2Cl)C[C@@H]1C , can you help?
### Response 1 to 10 µM

### Prompt Looking for the measured IC50 of COC(=O)N1c2ccc(-c3cnn(C(C)(C)CO)c3)cc2N(C(=O)Oc2ccccn2)C[C@@H]1C , can you help?
### Response 1 to 10 µM

----------
IC50 reference
# tested_system: BRD4 BD1 (Homo sapiens, UniProt O60885)
# assay_summary: AlphaScreen binding assay, BRD4 Bromodomain 1

1. CC(=O)N1c2ccc(-c3cnn(C4CC4)c3)cc2N(C(=O)Oc2cncc3ccccc23)C[C@@H]1C [Example I-525]    1000 to 10000 nM
2. COC(=O)N1c2ccc(-c3cnn(C4CCNCC4)c3)cc2N(C(=O)OC(C)C)C[C@@H]1C [Example I-355]    100 to 1000 nM
3. CC(=O)N1c2ccc(-c3cnn(C4CCNCC4)c3)cc2N(c2nn(C)c3ccccc23)C[C@@H]1C [Example I-181]    100 to 1000 nM
4. CC(=O)N1c2ccc(-c3ccc(S(=O)(=O)C(C)C)cc3)cc2N(C(=O)OC2CCOCC2)C[C@@H]1C [Example I-1232]    100 to 1000 nM
5. CC(=O)N1c2ccc(-c3cnn(CC(=O)N(C)C)c3)cc2N(C(=O)C2CC2)C[C@@H]1C [Example I-683]    1000 to 10000 nM
6. COC(=O)N1c2ccc(-c3cnn(CC4(CO)COC4)c3)cc2N(C(=O)OC(C)C)C[C@@H]1C [Example I-630]    < 100 nM
7. COC(=O)N1c2ccc(-c3cnn(CCC(N)=O)c3)cc2N(C(=O)OC(C)C)C[C@@H]1C [Example I-638]    100 to 1000 nM
8. CC(=O)N1c2ccc(-c3cnn(C4CC4)c3)cc2N(C(=O)Oc2cnc3ccccc3c2)C[C@@H]1C [Example I-1203]    1000 to 10000 nM

Note: attention shifts to another entry.
### Prompt Looking for the measured IC50 of CCS(=O)(=O)c1cccc(-c2ccc3c(c2)N(C(=O)OC2CCOCC2)C[C@H](C)N3C(C)=O)c1 [Example I-1246] , can you help?
### Response 100 to 1000 nM
